method.description: gradient 5% acetonitrile 3 min, to 50% in 2 min, to 85% in 15 min, held 3 min, 100 µL/min
condition.set: column: Zorbax Extend-C18 2.1 x 50 mm; eluents: water / acetonitrile, 0.1% formic acid
We begin with a simple list: items and their reported RP-LC retention time.
Express your answer in s, writing the number without its unit.

As a guide, the following entries are already answered.
[[record]]
molecule = "NC(=O)Cn1c(CCc2ccccc2)nc2ccccc21"
observation_type = "RP-LC retention time"
endpoint_result = 581

[[record]]
molecule = "CCOc1ccc(N2C(=O)C3N=NN(Cc4nc(-c5ccccc5Br)no4)C3C2=O)cc1 (configuration not stated)"
observation_type = "RP-LC retention time"
endpoint_result = 1010

[[record]]
molecule = "CCc1nn2c(CNS(=O)(=O)c3ccc(F)c(C)c3)c(-c3ccccc3)nc2s1"
observation_type = "RP-LC retention time"
endpoint_result = 974

[[record]]
molecule = "CCOC(=O)c1c(CN2CCOCC2)n(C)c2cc(Br)c(OC(C)=O)cc12"
observation_type = "RP-LC retention time"
endpoint_result = 704


Dear colleague, I am looking for the recorded RP-LC retention time of the following molecule: CCCN(CC1CCOC1)C(=O)Nc1ccccc1C (configuration not stated) 768

Dear colleague, I am looking for the recorded RP-LC retention time of the following molecule: O=C(NCC(=O)N1CCN(c2ccccn2)CC1)c1cncc(Br)c1 576

Dear colleague, I am looking for the recorded RP-LC retention time of the following molecule: CC(C)(C)NC(=O)N1CCCN(S(C)(=O)=O)CC1 614

Dear colleague, I am looking for the recorded RP-LC retention time of the following molecule: CCCn1ccc2sc(C)c(C(=O)NCCN3CCCCC3CC)c2c1=O (configuration not stated) 673

Dear colleague, I am looking for the recorded RP-LC retention time of the following molecule: CC(=O)N1c2ccc(S(=O)(=O)N3CCCC3)cc2CC1C(=O)NCCN(C)C1CCCCC1 (configuration not stated) 577

Dear colleague, I am looking for the recorded RP-LC retention time of the following molecule: Fc1ccc(F)c(-c2nc(-c3ccc4nncn4c3)no2)c1 801

Dear colleague, I am looking for the recorded RP-LC retention time of the following molecule: Cc1ccc(C)c(NC(=O)c2c(O)c3cccnc3n(-c3ccc(F)cc3)c2=O)c1 1360

Dear colleague, I am looking for the recorded RP-LC retention time of the following molecule: Cc1cc(C)cc(NC(=O)c2cnc(-c3ccccc3)nc2-c2ccncc2)c1 988
